These entries and their values trace back to patent US11629143B2.

Target: KIT (Homo sapiens, UniProt P10721)
Sequence (P10721 26-976, species assumed): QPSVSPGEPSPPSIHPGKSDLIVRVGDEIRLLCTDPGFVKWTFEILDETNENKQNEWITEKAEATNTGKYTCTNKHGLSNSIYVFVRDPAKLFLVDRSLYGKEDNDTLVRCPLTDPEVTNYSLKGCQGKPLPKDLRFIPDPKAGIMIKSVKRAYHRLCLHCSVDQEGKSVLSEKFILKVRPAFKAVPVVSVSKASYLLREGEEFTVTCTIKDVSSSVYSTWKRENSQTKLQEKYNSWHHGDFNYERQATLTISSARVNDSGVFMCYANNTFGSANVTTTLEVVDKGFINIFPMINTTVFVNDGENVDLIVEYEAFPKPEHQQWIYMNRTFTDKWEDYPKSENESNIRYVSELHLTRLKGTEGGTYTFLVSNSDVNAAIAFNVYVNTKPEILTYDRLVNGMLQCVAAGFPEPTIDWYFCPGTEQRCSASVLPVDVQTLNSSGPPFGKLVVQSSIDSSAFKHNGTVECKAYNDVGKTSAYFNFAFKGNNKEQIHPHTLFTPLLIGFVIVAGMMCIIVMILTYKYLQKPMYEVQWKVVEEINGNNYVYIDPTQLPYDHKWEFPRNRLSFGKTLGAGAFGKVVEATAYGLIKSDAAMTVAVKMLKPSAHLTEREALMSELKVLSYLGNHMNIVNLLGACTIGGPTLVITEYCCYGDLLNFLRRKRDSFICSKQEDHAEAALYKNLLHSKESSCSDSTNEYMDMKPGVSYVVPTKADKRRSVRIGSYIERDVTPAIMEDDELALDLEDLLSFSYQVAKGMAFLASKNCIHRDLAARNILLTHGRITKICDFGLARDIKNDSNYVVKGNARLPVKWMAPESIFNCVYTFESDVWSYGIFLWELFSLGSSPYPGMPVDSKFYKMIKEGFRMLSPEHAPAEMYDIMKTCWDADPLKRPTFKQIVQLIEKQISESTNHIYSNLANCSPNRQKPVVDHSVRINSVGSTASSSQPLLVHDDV
Assay: Kinase panel (mobility shift)
Format: biochemical
Listed here are compounds together with their documented inhibition at 5 µM.

Past entries and their recorded results:
> print(dat)
                                   compound    measurement.kind     result
1  CNC(=O)c1cc(Oc2ccc(NC(=O)c3nc(OCC(F)(F)F)oc3-c3ccc(F)cc3)cc2F)ccn1 [Compound 38]  inhibition at 5 µM      < 50%
2  CNC(=O)c1cc(Oc2ccc(NC(=O)c3nc(NC)sc3-c3ccc(F)cc3C)cc2F)ccn1 [Compound 23]  inhibition at 5 µM  50 to 79%
3  CNC(=O)c1cc(Oc2ccc(NC(=O)c3nc(S(C)(=O)=O)sc3-c3ccc(F)cc3)cc2F)ccn1 [Compound 13]  inhibition at 5 µM      < 50%

Shifting focus to the compound that follows.
Lookup: Param item = CNC(=O)c1cc(Oc2ccc(NC(=O)c3nc(COC)oc3-c3ccc(F)cc3)cc2F)ccn1 [Compound 30] ; retrieve measured inhibition at 5 µM.
Found: 50 to 79%

---

Target: UniProtKB O94804
Sequence (O94804 whole entry, species assumed): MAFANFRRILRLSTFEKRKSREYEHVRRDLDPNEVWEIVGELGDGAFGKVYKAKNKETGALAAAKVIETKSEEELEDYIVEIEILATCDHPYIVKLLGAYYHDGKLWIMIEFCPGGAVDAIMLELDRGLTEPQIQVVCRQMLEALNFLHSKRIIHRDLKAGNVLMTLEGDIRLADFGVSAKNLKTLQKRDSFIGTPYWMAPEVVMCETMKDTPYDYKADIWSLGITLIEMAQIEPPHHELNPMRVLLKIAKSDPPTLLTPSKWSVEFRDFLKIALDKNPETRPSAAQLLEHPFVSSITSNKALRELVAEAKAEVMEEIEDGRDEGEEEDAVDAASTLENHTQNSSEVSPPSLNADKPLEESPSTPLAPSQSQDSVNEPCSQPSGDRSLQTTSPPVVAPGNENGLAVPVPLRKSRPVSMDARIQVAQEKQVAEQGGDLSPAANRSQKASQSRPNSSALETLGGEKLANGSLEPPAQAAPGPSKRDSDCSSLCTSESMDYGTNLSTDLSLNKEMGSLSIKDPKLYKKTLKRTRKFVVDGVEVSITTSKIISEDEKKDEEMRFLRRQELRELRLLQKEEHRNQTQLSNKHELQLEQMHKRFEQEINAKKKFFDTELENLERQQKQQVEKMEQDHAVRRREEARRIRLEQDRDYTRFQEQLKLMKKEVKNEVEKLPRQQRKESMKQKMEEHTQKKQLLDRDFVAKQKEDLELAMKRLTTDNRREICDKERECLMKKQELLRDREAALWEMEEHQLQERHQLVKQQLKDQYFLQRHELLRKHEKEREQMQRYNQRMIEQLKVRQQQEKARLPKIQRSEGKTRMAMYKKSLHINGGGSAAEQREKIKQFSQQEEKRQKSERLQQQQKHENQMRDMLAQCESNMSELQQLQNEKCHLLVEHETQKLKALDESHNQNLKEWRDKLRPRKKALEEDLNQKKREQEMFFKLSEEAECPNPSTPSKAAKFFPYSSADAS
Experiment: Kinase panel (mobility shift)
Type: biochemical
Settings: at 5 um
measurement_kind: inhibition of kinase activity, LOK

Worked examples follow.
> print(dat)
                                   molecule                    result
1  CNC(=O)c1cc(Oc2ccc(NC(=O)c3nc(OC)oc3-c3ccc(F)cc3)cc2F)ccn1 [Compound 15]     C (C=80%-89% at 5 um)
2  CNC(=O)c1cc(Oc2ccc(NC(=O)c3nc(NC)sc3-c3ccc(F)cc3C)cc2F)ccn1 [Compound 23]  D (category D for 50-79)
3  CNC(=O)c1cc(Oc2ccc(NC(=O)c3nc(SC)oc3-c3ccc(F)s3)cc2F)ccn1 [Compound 16]  D (category D for 50-79)
4  CNC(=O)c1cc(Oc2ccc(NC(=O)c3nc(OCC(F)(F)F)oc3-c3ccc(F)cc3)cc2F)ccn1 [Compound 38]     C (C=80%-89% at 5 um)

# ---- query molecule ----
Lookup: Using the record for [2H]C([2H])([2H])NC(=O)c1cc(Oc2ccc(NC(=O)c3nc(SC)oc3-c3ccc(F)c(F)c3)cc2F)ccn1 [Compound 33] , report its inhibition of kinase activity, LOK.
Found: C (C=80%-89% at 5 um)

---

Entries and their inhibition at 5 µM
Target: SRC (Homo sapiens)
Sequence (P12931 whole entry, species assumed): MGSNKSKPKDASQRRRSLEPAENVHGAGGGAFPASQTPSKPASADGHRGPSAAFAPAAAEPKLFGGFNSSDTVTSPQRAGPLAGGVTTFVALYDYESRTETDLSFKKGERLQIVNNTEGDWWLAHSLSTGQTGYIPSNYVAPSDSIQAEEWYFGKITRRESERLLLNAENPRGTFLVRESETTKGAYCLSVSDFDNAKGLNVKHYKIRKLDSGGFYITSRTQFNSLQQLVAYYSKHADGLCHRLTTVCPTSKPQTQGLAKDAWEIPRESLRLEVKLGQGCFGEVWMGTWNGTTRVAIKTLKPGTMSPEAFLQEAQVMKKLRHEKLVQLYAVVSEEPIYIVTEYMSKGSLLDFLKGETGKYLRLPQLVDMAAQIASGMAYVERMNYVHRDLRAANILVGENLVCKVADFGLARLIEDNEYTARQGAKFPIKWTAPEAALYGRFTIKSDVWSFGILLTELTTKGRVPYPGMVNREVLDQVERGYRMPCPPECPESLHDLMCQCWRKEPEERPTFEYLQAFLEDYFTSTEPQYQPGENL
Experiment: Kinase panel (mobility shift)
Assay type: biochemical

Lookup: // query inhibition at 5 µM value for entry `CNC(=O)c1cc(Oc2ccc(NC(=O)c3nc(SC(C)C)oc3-c3ccc(F)cc3)cc2F)ccn1`
Found: 80 to 89%

Lookup: GET /values?readout=inhibition at 5 µM&item= `CNC(=O)c1cc(Oc2ccc(NC(=O)c3nc(S(C)(=O)=O)sc3-c3ccc(F)cc3)cc2F)ccn1`
Found: < 50%

---

Target: EPH-B4 (Homo sapiens)
Sequence (P54760 16-987): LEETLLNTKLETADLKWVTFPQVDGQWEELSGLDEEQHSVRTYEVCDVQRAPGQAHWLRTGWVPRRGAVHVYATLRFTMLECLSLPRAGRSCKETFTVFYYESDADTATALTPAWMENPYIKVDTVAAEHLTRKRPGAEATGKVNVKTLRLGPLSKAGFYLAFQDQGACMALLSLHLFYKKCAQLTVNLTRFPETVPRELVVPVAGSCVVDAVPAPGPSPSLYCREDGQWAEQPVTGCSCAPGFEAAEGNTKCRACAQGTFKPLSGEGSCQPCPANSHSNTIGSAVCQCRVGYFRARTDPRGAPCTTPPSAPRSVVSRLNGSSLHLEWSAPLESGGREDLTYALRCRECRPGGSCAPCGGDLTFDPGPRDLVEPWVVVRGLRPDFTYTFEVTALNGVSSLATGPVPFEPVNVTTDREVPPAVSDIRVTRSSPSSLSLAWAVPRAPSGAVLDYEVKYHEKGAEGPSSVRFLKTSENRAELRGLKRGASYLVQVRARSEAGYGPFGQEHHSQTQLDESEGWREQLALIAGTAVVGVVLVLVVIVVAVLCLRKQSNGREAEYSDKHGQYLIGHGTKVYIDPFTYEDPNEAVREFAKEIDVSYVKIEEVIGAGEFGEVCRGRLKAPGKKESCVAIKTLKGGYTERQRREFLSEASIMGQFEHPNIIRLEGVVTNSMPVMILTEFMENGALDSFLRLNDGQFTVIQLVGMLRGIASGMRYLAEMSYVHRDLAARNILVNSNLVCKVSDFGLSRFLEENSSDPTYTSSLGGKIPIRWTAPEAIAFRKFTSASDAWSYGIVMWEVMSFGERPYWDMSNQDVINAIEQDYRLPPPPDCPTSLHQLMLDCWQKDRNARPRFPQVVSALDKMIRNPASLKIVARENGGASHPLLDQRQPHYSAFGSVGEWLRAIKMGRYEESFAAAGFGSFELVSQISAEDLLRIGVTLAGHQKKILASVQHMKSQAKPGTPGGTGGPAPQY
Assay: Kinase panel (mobility shift)
Type: biochemical
Below: a set of entries, each annotated with reported inhibition at 5 µM.

> print(dat)
                         compound.structure  result
1  [2H]C([2H])([2H])NC(=O)c1cc(Oc2ccc(NC(=O)c3nc(SC)oc3-c3ccc(F)c(F)c3)cc2F)ccn1   < 50%

Lookup: Could you share which inhibition at 5 µM value was measured for `CNC(=O)c1cc(Oc2ccc(NC(=O)c3nc(SC(C)C)oc3-c3ccc(F)cc3)cc2F)ccn1` ?
Found: 80 to 89%

Lookup: Please look up its inhibition at 5 µM: `CNC(=O)c1cc(Oc2ccc(NC(=O)c3nc(NC)sc3-c3ccc(F)cc3F)cc2F)ccn1`
Found: < 50%

Lookup: Which inhibition at 5 µM reading was recorded for the compound `CNC(=O)c1cc(Oc2c(F)cc(NC(=O)c3nc(NC)sc3-c3ccc(F)cc3)cc2F)ccn1` ?
Found: 50 to 79%

Lookup: Please give the measured inhibition at 5 µM for this compound: `CSc1nc(C(=O)Nc2ccc(Oc3ccnc(C(=O)NC4COC4)c3)c(F)c2)c(-c2ccc(F)c(F)c2)o1`
Found: < 50%

Lookup: inhibition at 5 µM lookup needed for `CSc1nc(C(=O)Nc2ccc(Oc3cc4cnn(C)c4cc3Br)c(F)c2)c(-c2ccc(F)cc2)o1` , thanks.
Found: < 50%

Lookup: # get_value(readout='inhibition at 5 µM', item= `CNC(=O)c1cc(Oc2ccc(NC(=O)c3nc(SC)oc3-c3ccc(F)c(F)c3)cc2)ccn1` )
Found: < 50%

---

Molecular target: BRK (Homo sapiens)
Sequence (Q13882 whole entry, species assumed): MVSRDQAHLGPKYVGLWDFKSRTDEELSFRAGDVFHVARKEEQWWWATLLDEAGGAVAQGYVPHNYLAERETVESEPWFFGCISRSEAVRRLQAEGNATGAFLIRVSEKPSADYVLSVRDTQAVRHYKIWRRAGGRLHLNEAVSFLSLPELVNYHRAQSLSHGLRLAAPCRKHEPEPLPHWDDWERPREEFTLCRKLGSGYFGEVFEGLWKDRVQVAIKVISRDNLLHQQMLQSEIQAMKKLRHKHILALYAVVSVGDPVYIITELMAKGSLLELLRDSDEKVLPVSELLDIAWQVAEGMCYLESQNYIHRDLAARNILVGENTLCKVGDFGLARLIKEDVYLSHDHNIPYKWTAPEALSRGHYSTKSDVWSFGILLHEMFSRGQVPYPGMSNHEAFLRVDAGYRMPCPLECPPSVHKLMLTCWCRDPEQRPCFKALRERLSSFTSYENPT
Experiment: Kinase panel (mobility shift)
Type: biochemical
measurement_kind: inhibition at 5 µM

Illustrative cases are given below, each with its answer.
> print(dat)
                         compound.structure    measurement.kind     result
1  CNC(=O)c1cc(Oc2ccc(NC(=O)c3nc(NC)sc3-c3ccc(F)cc3F)cc2F)ccn1  inhibition at 5 µM      < 50%
2  CNC(=O)c1cc(Oc2ccc(NC(=O)c3nc(NC)sc3-c3ccc(F)cc3C)cc2F)ccn1  inhibition at 5 µM  50 to 79%
3  COc1nc(C(=O)Nc2ccc(Oc3ccnc(C(=O)NC4COC4)c3)c(F)c2)c(-c2ccc(F)cc2)o1  inhibition at 5 µM  50 to 79%
4  CNC(=O)c1cc(Oc2ccc(NC(=O)c3nc(SC)oc3-c3ccc(F)cc3Cl)cc2)ccn1  inhibition at 5 µM  90 to 94%

Lookup: Query: inhibition at 5 µM; subject: `CSc1nc(C(=O)Nc2ccc(Oc3ccnc(N)c3Cl)c(F)c2)c(-c2ccc(F)cc2)o1`
Found: 50 to 79%

Lookup: Give the measured inhibition at 5 µM of `CNC(=O)c1cc(Oc2ccc(NC(=O)c3nc(S(C)(=O)=O)sc3-c3ccc(F)cc3)cc2F)ccn1` .
Found: 50 to 79%

Lookup: So what does the record say about inhibition at 5 µM for `CNC(=O)c1cc(Oc2ccc(NC(=O)c3nc(NC)oc3-c3ccc(F)s3)cc2F)ccn1` ?
Found: < 50%

Lookup: What value of inhibition at 5 µM has been recorded for this entry: `CNC(=O)c1cc(Oc2ccc(NC(=O)c3nc(C4CC4)oc3-c3ccc(F)cc3)cc2F)ccn1`
Found: 90 to 94%

---

Target: TAOK2 (Homo sapiens)
Sequence (Q9UL54 1-1235): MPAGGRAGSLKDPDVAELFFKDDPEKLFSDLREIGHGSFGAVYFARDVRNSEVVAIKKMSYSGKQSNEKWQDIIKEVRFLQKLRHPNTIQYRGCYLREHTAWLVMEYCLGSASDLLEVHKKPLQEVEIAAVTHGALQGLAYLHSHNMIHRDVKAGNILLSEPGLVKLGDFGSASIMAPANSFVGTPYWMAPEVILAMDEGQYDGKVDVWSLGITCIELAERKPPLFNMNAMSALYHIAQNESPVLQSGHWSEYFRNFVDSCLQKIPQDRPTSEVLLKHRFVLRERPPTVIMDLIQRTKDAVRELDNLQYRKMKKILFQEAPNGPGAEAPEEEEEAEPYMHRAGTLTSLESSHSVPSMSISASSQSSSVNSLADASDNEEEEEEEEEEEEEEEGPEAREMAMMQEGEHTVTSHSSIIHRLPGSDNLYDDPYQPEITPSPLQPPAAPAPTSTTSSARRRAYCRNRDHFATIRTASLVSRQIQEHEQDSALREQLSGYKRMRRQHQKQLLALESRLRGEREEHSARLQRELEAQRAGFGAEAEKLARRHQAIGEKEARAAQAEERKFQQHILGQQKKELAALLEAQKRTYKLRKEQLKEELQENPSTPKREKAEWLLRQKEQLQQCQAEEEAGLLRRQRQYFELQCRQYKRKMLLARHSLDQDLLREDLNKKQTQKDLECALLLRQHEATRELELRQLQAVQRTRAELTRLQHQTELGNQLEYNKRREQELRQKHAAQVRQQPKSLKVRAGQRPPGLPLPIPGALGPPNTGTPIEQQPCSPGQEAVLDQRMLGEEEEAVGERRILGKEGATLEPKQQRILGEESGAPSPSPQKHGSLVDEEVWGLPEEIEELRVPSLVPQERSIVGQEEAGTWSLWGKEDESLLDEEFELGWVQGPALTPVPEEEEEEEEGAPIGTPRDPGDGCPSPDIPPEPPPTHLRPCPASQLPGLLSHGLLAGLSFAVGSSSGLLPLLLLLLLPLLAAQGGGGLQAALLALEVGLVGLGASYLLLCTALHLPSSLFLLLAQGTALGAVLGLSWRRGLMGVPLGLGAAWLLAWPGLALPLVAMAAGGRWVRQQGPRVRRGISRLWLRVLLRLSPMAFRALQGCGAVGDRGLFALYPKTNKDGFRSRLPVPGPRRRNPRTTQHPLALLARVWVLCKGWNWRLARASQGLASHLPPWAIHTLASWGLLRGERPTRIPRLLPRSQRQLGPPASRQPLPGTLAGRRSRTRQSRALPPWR
Assay: Kinase panel (mobility shift)
Type: biochemical
measurement_kind: inhibition at 5 µM

> print(dat)
                         compound.structure          study.target     result
1  CNC(=O)c1cc(Oc2ccc(NC(=O)c3nc(NC)sc3-c3ccc(F)cc3C)cc2F)ccn1  TAOK2 (Homo sapiens)  50 to 79%
2  CSc1nc(C(=O)Nc2ccc(Oc3cc4cnn(C)c4cc3Br)c(F)c2)c(-c2ccc(F)cc2)o1  TAOK2 (Homo sapiens)      < 50%
3  CNC(=O)c1cc(Oc2ccc(NC(=O)c3nc(SC)oc3-c3ccc(F)cc3F)cc2F)ccn1  TAOK2 (Homo sapiens)      < 50%
4  CSc1nc(C(=O)Nc2ccc(Oc3ccnc(-c4cnn(C)c4)c3)c(F)c2)c(-c2ccc(F)cc2)o1  TAOK2 (Homo sapiens)      < 50%

Lookup: Could you tell me which inhibition at 5 µM is on file for `CSc1nc(C(=O)Nc2ccc(Oc3ccnc(C(=O)NC4COC4)c3)c(F)c2)c(-c2ccc(F)c(F)c2)o1` ?
Found: < 50%

Lookup: Need inhibition at 5 µM, item `CNC(=O)c1cc(Oc2ccc(NC(=O)c3nc(NC)sc3-c3ccc(F)cc3F)cc2F)ccn1`
Found: < 50%

Lookup: Given `CNC(=O)c1cc(Oc2ccc(NC(=O)c3nc(SC)oc3-c3ccc(F)c(F)c3)cc2)ccn1` , state its recorded inhibition at 5 µM.
Found: < 50%

Lookup: Quick one: inhibition at 5 µM for `[2H]C([2H])([2H])NC(=O)c1cc(Oc2ccc(NC(=O)c3nc(SC)oc3-c3ccc(F)s3)cc2F)ccn1` ?
Found: < 50%

Lookup: If you can, please state the reported inhibition at 5 µM value of `CNC(=O)c1cc(Oc2ccc(NC(=O)c3nc(NC)oc3-c3ccc(F)cc3)cc2F)ccn1` .
Found: 80 to 89%

Lookup: Item `CNC(=O)c1cc(Oc2ccc(NC(=O)c3nc(SC)oc3-c3ccc(F)cc3F)cc2)ccn1` has what recorded inhibition at 5 µM?
Found: < 50%

Lookup: Report inhibition at 5 µM for `CNC(=O)c1cc(Oc2ccc(NC(=O)c3nc(SC)oc3-c3ccc(OC)cc3)cc2)ccn1` please.
Found: < 50%

Lookup: Query: inhibition at 5 µM; subject: `CNC(=O)c1cc(Oc2ccc(NC(=O)c3nc(S(C)(=O)=O)sc3-c3ccc(F)cc3)cc2F)ccn1`
Found: < 50%

Lookup: Item under review: `CNC(=O)c1cc(Oc2ccc(NC(=O)c3nc(OC)oc3-c3ccc(F)s3)cc2F)ccn1` . Reported inhibition at 5 µM?
Found: < 50%

Lookup: Entry under review: `CNC(=O)c1cc(Oc2c(F)cc(NC(=O)c3nc(NC)sc3-c3ccc(F)cc3)cc2F)ccn1` . Reported inhibition at 5 µM?
Found: < 50%

Lookup: What measured inhibition at 5 µM goes with `CSc1nc(C(=O)Nc2ccc(Oc3ccnc(C(=O)NC4CCN(C)CC4)c3)c(F)c2)c(-c2ccc(F)cc2)o1` ?
Found: < 50%
